Provenance of the data: paper PMC4456239

tgt: recombinant His-tagged human cyclin A2 (sequence 174-432) (human) (UniProt P20248)
assay_overview: other fluorescence titration
*: point of attachment. X2 = 4‑((4-methylpiperazin-1-yl)methyl)benzoic acid, CN1CCN(Cc2ccc(C(=O)*)cc2)CC1
parameter: pKd
A value of pKd is the negative decimal logarithm of a concentration given in moles per litre.

Entry X2-RLIF-NH2 [SCCP5921: 4-((4-methylpiperazin-1-yl)methyl)benzoic acid ligated to the p21 C-terminus, RLIF] ; pKd = 5.26
